Listed below: T/C values for each entry.
Test system: P388 leukemia ip, CD2F1 mice, survival T/C
measurement-notes: NCI In Vivo Anticancer Drug Screen. Data for tumor model P388 Leukemia (intraperitoneal) in CD2F1 (CDF1) mice
condition-parameters: endpoint: median survival time; dose: 200.0 mg/kg/injection; schedule: Q01DX005 (ip); vehicle: Klucel (hydroxypropylcellulose) (HPC); higher = longer survival
Inconclusive results and toxic doses are left out. Square brackets hold non-standard residues; d marks the D form. Peptide text beside a SMILES is read from it. ξ: configuration not given here. ξF = NC(Cc1ccccc1)C(=O)O
quantity: T/C

compound: N#CC(Br)CNC(=O)Oc1ccccc1 (centres undefined)
recorded-value: 105 % of control
//
compound: COC(=O)C1=CSCCC1=O
recorded-value: 117 % of control
//
compound: COc1ccc(N(C)C(=S)c2ccccc2)cc1
recorded-value: 92 % of control
//
compound: Cc1c([N+](=O)[O-])cc(N)cc1S(=O)(=O)O
recorded-value: 93 % of control
//
compound: Cc1ccc(S(=O)(=O)/N=C2\CCN(S(=O)(=O)c3ccccc3)N2S(=O)(=O)c2ccc(C)cc2)cc1
recorded-value: 94 % of control
//
compound: CCOCCOCCOc1cccc2cccnc12
recorded-value: 107 % of control
//
compound: CC1(C)Oc2ccc3ccc(=O)oc3c2C(O)C1O (centres undefined)
recorded-value: 92 % of control
//
compound: S=c1[nH]nc(Cc2cccc3ccccc23)n1-c1ccccc1
recorded-value: 90 % of control
//
compound: Oc1ccccc1C=Nc1c(Cl)cc(Cl)cc1Cl
recorded-value: 107 % of control
//
compound: c1cc[c]([GeH][c]2ccccc2)cc1.c1cc[c]([GeH][c]2ccccc2)cc1
recorded-value: 100 % of control
//
compound: CC1(C)CC(=O)C(C(c2cccc([N+](=O)[O-])c2)C2C(=O)CC(C)(C)CC2=O)C(=O)C1
recorded-value: 102 % of control
//
compound: NCC(=O)NC(Cc1ccccc1)C(=O)NCC(=O)O (centres undefined) (H-Gly-[ξF]-Gly-OH)
recorded-value: 100 % of control
//
compound: Cn1ccc2c3c(ccc21)C(N1CCOCC1)=CS(=O)(=O)O3
recorded-value: 100 % of control
//
compound: COC(=O)/C(C#N)=C/c1ccc(NC(C)=O)cc1
recorded-value: 88 % of control
//
compound: O=C1CC(=O)N(CN2C(=O)CC(=O)NC2=S)C(=S)N1
recorded-value: 105 % of control
//
compound: C[C@]12CC[C@H]3[C@@H](CC=C4C[C@@H](O)CC[C@@]43C)[C@@H]1CC[C@@H]2N(CCO)CCO
recorded-value: 97 % of control
//
compound: Cc1ccc2nc3[nH]c(=O)[nH]c(=O)c3c(N)c2c1
recorded-value: 102 % of control
//
compound: O=C1SC/C(=N\N=C2/CSC(=O)N2Cc2ccccc2)N1Cc1ccccc1
recorded-value: 88 % of control
//
compound: CCC12OCC(C)(C)N1OC(=O)N2c1ccccc1 (centres undefined)
recorded-value: 97 % of control
//
compound: CCCOc1ccc(C(C)c2cc3c(cc2OC)OCO3)cc1 (centres undefined)
recorded-value: 98 % of control
//
compound: COc1ccc(N/N=C(/c2ccccc2)c2noc(-c3ccccc3)n2)cc1
recorded-value: 93 % of control
//
compound: O/N=C1C=C/C(=C/c2ccccc2)c2ccccc2/1
recorded-value: 92 % of control
//
compound: Nc1ccc(O)c(=O)cc1
recorded-value: 92 % of control
//
compound: c1ccc2nc3c(nc2c1)CCCC3
recorded-value: 100 % of control
//
compound: CCc1noc2cc(-c3ccccc3)n(C)c(=O)c12
recorded-value: 105 % of control
//
compound: CCC(c1ccc(OC)cc1)c1cc2c(cc1OC)OCO2 (centres undefined)
recorded-value: 113 % of control
//
compound: O=C(NO)c1cccc2ccccc12
recorded-value: 113 % of control
//
compound: NC(CCN[N+](=O)[O-])C(=O)O (centres undefined)
recorded-value: 97 % of control
//
compound: COc1c(Br)c2c(c([N+](=O)[O-])c1OC)C(=O)OC2C1c2c(cc3c(c2OC)OCO3)CCN1C (centres undefined)
recorded-value: 103 % of control
//
compound: S=C(Cl)Sc1ccc(-c2ccc(SC(=S)Cl)cc2)cc1
recorded-value: 87 % of control
//
compound: CN1C(=O)C(=C2C=C(c3ccccc3)C(C#N)(c3ccccc3)C(c3ccccc3)=C2)C(=O)N(C)C1=O (centres undefined)
recorded-value: 101 % of control
//
compound: Cn1nc(-c2ccccc2)c([N+](=O)[O-])c1NCc1ccccc1
recorded-value: 97 % of control
//
compound: COc1cc(OC)c(NC(=O)C(Sc2nc(C)cc(C)c2C#N)c2ccccc2)cc1Cl (centres undefined)
recorded-value: 87 % of control
//
compound: O=C(C#Cc1ccccc1)C1=Cc2ccccc2OC1
recorded-value: 96 % of control
//
compound: CCOc1ccc(C(C)c2cc3c(cc2OCC)OCO3)cc1C (centres undefined)
recorded-value: 114 % of control
//
compound: Cc1cc(=O)c2cc3nc(-c4cccnc4)oc3c(Br)c2o1
recorded-value: 88 % of control
//
compound: O=C(c1ccccc1Cl)n1oc2ccccc2c1=O
recorded-value: 106 % of control
//
compound: O=C(N/N=C/C(O)C1OC(=O)C(O)C1O)c1ccncc1 (centres undefined)
recorded-value: 99 % of control
//
compound: CC1S(=O)(=O)O[Si](C)(C)CC[Si](C)(C)OS1(=O)=O
recorded-value: 102 % of control
